system: Enterobacter cloacae NCTC 13406; experiment: MIC, broth microdilution (CLSI) versus planktonic bacteria; format: cell-based; conditions: NCTC13406; Enterobacter cloacae NCTC 13406; 16-20 h; mode of three independent experiments; read-out: MIC, Ecl NCTC 13406
observable: MIC

Use the examples below as a reference point.
-- ask Which MIC value is on record for COc1ccc2ncc(=O)n(CCN[C@H]3CC[C@H]4[C@@H](C3)OC(=O)N4c3ccc4c(n3)NC(=O)CO4)c2c1 ?
-- reply < 1 µg/mL

-- ask Which MIC value is on record for O=C1COc2ccc(N3C(=O)O[C@H]4C[C@@H](NCCn5c(=O)ccc6ncc(OC(F)F)cc65)CC[C@@H]43)nc2N1 ?
-- reply 1 to 10 µg/mL

---
-- ask Which MIC value is on record for COc1cnc2ccc(=O)n(CCN[C@@H]3CC[C@@H]4[C@@H](C3)OC(=O)N4c3ccc4c(n3)NC(=O)CO4)c2n1 ?
-- reply < 1 µg/mL

* * *

test system: Enterobacter cloacae NCTC 13406; test: MIC, broth microdilution (CLSI) versus planktonic bacteria; assay type: cell-based; conditions: NCTC13406; Enterobacter cloacae NCTC 13406; 16-20 h; mode of three independent experiments; read-out: MIC, Ecl NCTC 13406
observable: MIC

Use the examples below as a reference point.
-- ask Hello, I am looking for reported MIC with Enterobacter cloacae NCTC 13406 for COc1ccc2ncc(=O)n(CCN[C@@H]3CC[C@@H]4[C@@H](C3)OC(=O)N4c3ccc4c(n3)NC(=O)CO4)c2c1 [Compound 21] . Could you help?
-- reply < 1 µg/mL

-- ask Hello, I am looking for reported MIC with Enterobacter cloacae NCTC 13406 for O=C1COc2ccc(N3C(=O)O[C@H]4C[C@@H](NCCCn5c(=O)cnc6ccc(F)cc65)CC[C@@H]43)nc2N1 [Compound 92] . Could you help?
-- reply < 1 µg/mL

-- ask Hello, I am looking for reported MIC with Enterobacter cloacae NCTC 13406 for COc1cnc2ccc(=O)n(CCN[C@H]3CC[C@H]4[C@H](C3)OC(=O)N4c3ccc4c(n3)NC(=O)CO4)c2n1 [Compound 63] . Could you help?
-- reply < 1 µg/mL

-- ask Hello, I am looking for reported MIC with Enterobacter cloacae NCTC 13406 for O=C1COc2ccc(N3C(=O)O[C@H]4C[C@@H](NCCCn5c(=O)cnc6cc(F)c(F)cc65)CC[C@@H]43)nc2N1 [Compound 90] . Could you help?
-- reply < 1 µg/mL

-- ask Hello, I am looking for reported MIC with Enterobacter cloacae NCTC 13406 for NCCCOc1ccc2ccc(=O)n(CCN[C@H]3CC[C@H]4[C@@H](C3)OC(=O)N4c3ccc4c(n3)NC(=O)CO4)c2n1 [Compound 5] . Could you help?
-- reply > 100 µg/mL

Now, please, on to the next molecule.
-- ask Hello, I am looking for reported MIC with Enterobacter cloacae NCTC 13406 for N#Cc1cccc(-c2cccc(CN[C@H]3CC[C@H]4[C@H](C3)OC(=O)N4c3ccc4c(n3)NC(=O)CO4)n2)c1 [Compound 105] . Could you help?
-- reply 1 to 10 µg/mL

* * *

Parameter MIC: see the listing below.
system: strains of Prevotella bivia; experiment: MIC against anaerobes, agar dilution (CLSI), clinical isolates; assay type: cell-based; details: Prevotella bivia strain 1

Use the examples below as a reference point.
-- ask Which MIC value is on record for Cc1ncc([N+](=O)[O-])n1CCO [MTZ, metronidazole, reference compound] ?
-- reply 1 to 4 µg/mL

-- ask Which MIC value is on record for Cc1ccc2ncc(=O)n(CCN[C@H]3CC[C@H]4[C@@H](C3)OC(=O)N4c3ccc4c(n3)NC(=O)CO4)c2c1 [Compound 27] ?
-- reply < 1 µg/mL

-- ask Which MIC value is on record for COc1ccc2ncc(=O)n(CCN[C@@H]3CC[C@@H]4[C@@H](C3)OC(=O)N4c3ccc4c(n3)NC(=O)CO4)c2c1 [Compound 21] ?
-- reply < 1 µg/mL

Now, please, on to the next compound.
-- ask Which MIC value is on record for CN[C@H](CC(C)C)C(=O)N[C@H]1C(=O)N[C@@H](CC(N)=O)C(=O)N[C@H]2C(=O)N[C@H]3C(=O)N[C@H](C(=O)N[C@H](C(=O)O)c4cc(O)cc(O)c4-c4cc3ccc4O)[C@H](O)c3ccc(c(Cl)c3)Oc3cc2cc(c3O[C@@H]2O[C@H](CO)[C@@H](O)[C@H](O)[C@H]2O[C@H]2C[C@](C)(N)[C@H](O)[C@H](C)O2)Oc2ccc(cc2Cl)[C@H]1O [VAN, vancomycin, reference compound] ?
-- reply > 64 µg/mL
